tested on: KBM5-T315I (human chronic myelogenous leukemia); experiment: MTT cancer cell growth inhibition; assay type: cell-based; conditions: Homo sapiens, 72 h, MTT, 72 hours incubation, KBM5-T315I cells; read-out: GI50 KBM5-T315I
Label condition met when GI50 is strictly below 50 nM; at or above that, label condition not met.

1. C/C=C1\NC(=O)c2cc(F)cc(n2)CCNC(=O)C[C@@H](/C=C/CCSC(C)=O)OC(=O)[C@H](C(C)C)NC1=O | condition not met
2. C/C=C1\NC(=O)c2cc(F)cc(n2)CNC(=O)C[C@@H](/C=C/CCSC(C)=O)OC(=O)[C@H](CCCCN)NC1=O | condition met
3. C/C=C1\NC(=O)c2cc(SCC)cc(n2)CNC(=O)C[C@@H](/C=C/CCSC(=O)CCCCCC)OC(=O)[C@H](C(C)C)NC1=O | condition not met
4. C/C=C1\NC(=O)c2cc(F)cc(n2)CNC(=O)C[C@@H](/C=C/CCS)OC(=O)[C@H](Cc2ccc(O)cc2)NC1=O | condition met
5. C/C=C1\NC(=O)c2cc(SC)cc(n2)CNC(=O)C[C@@H](/C=C/CCS)OC(=O)[C@H](C)NC1=O | condition met
6. C/C=C1\NC(=O)c2cc(F)cc(n2)CNC(=O)C[C@@H](/C=C/CCS)OC(=O)[C@H](CCCCN)NC1=O | condition not met
7. C/C=C1\NC(=O)c2cccc(n2)CNC(=O)C[C@@H](/C=C/CCS)OC(=O)[C@H](Cc2ccc(O)cc2)NC1=O | condition met
8. C/C=C1\NC(=O)c2ccc(SC)c(n2)CNC(=O)C[C@@H](/C=C/CCSC(C)=O)OC(=O)[C@H](Cc2cccc3ccccc23)NC1=O | condition met
9. C/C=C1\NC(=O)c2nc(ccc2SC)CNC(=O)C[C@@H](/C=C/CCSC(=O)CCCCC)OC(=O)[C@H](C(C)C)NC1=O | condition met
10. C/C=C1\NC(=O)c2ccc(F)c(n2)CNC(=O)C[C@@H](/C=C/CCSC(C)=O)OC(=O)[C@@H](C)NC1=O | condition not met
11. C=C1NC(=O)c2cc(F)cc(n2)CNC(=O)C[C@@H](/C=C/CCSC(C)=O)OC(=O)[C@H](C(C)C)NC1=O | condition met
12. C/C=C1\NC(=O)c2cccc(n2)CNC(=O)C[C@@H](/C=C/CCSC(C)=O)OC(=O)[C@H](C(C)C)NC1=O | condition not met
13. C/C=C1\NC(=O)c2cc(SC)cc(n2)CNC(=O)C[C@@H](/C=C/CCSC(C)=O)OC(=O)[C@H](CC)NC1=O | condition met

* * *

biological target: HDAC3 (Homo sapiens); test: HDAC biochemical activity measurement (fluorescent substrate deacetylation);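 note: fluorogenic acetyl-lysine substrate (20 µM) deacetylated by HDAC3, then developer added for 15 min at room temperature, release of fluorophore read at excitation 360 nm, emission 460 nm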
Sequence (O15379 whole entry, species assumed): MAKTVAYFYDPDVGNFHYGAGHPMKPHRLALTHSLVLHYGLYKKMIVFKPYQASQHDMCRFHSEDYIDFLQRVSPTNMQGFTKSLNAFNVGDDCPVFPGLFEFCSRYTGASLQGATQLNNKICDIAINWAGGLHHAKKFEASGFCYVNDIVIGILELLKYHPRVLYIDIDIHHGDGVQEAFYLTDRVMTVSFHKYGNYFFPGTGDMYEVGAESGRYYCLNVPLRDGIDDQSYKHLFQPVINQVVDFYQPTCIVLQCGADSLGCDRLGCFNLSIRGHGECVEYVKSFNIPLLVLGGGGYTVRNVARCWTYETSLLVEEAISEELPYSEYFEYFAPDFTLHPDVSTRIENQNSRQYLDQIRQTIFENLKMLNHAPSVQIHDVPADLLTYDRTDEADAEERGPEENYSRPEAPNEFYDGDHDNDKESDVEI
Sequence (Q9Y618 395-489 partner limits assumed, species assumed): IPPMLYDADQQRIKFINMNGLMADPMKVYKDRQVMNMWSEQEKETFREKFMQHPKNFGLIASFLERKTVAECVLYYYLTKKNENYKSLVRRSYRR
pIC50: −log10 of the molar value.
outcome measure: pIC50

1. C/C=C1\NC(=O)c2cccc(n2)NC(=O)C[C@@H](/C=C/CCSC(C)=O)OC(=O)[C@H](C(C)C)NC1=O | 7.21
2. C/C=C1\NC(=O)c2cccc(n2)CNC(=O)C[C@@H](/C=C/CCSC(=O)CCCCCCC)OC(=O)[C@H](CC(C)C)NC1=O | 7.21
3. C/C=C1\NC(=O)c2ccc(SC)c(n2)CNC(=O)C[C@@H](/C=C/CCSC(C)=O)OC(=O)[C@H](CC)NC1=O | 7.47
4. C/C=C1\NC(=O)c2nc(ccc2SC)CNC(=O)C[C@@H](/C=C/CCSC=O)OC(=O)[C@H](C(C)C)NC1=O | 7.47
5. C/C=C1\NC(=O)c2ccc(SC)c(n2)CNC(=O)C[C@@H](/C=C/CCSC(=O)CCCCCCC)OC(=O)[C@H](CC)NC1=O | 7.43
6. C/C=C1\NC(=O)c2cc(C)cc(n2)CNC(=O)C[C@@H](/C=C/CCSC(C)=O)OC(=O)[C@H](Cc2ccccc2)NC1=O | 7.55
